- SYSTEM: CYP3A4 (Homo sapiens)
- Sequence (P08684 whole entry): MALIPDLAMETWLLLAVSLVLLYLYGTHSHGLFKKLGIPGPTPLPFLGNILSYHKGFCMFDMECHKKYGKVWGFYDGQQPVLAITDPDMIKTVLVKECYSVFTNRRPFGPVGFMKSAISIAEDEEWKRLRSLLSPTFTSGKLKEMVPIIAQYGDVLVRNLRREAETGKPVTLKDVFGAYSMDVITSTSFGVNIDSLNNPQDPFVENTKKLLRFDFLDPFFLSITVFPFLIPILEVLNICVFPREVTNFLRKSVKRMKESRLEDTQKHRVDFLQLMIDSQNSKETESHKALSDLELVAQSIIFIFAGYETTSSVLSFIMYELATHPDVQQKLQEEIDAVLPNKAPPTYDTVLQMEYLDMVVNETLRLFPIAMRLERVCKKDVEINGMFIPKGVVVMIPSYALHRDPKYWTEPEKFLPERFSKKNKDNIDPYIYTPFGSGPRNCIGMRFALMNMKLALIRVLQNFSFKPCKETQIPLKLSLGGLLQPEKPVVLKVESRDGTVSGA
- PROTOCOL: Human liver microsomal CYP450 inhibition, CYP3A4
- STATED_CONDITIONS: Ki, CYP3A4 (Testosterone), human liver microsomes; time dependent inhibition
Ki by entry:
ASSAY_READOUT: Ki (nM)

>>> reported_result("CO[P@](=O)(c1cc(C)cc(/C=C/C#N)c1)c1c(C(N)=O)[nH]c2ccc(Cl)cc12")
210
>>> reported_result("CO[P@](=O)(c1cc(C)cc(/C=C/C#N)c1)c1c(C(N)=O)[nH]c2ccc(Cl)c(F)c12")
140

* * *

In this section we review reported CC50 at 4 days values for a set of compounds.
- PROTOCOL: Cellular cytotoxicity, 4 days, MTS, MT-4
- STATED_CONDITIONS: human, MT-4 cells (leukemia T cells), Average CC50 Values ± Standard Deviation, MT-4, Table 21; 4 days, MTS
ASSAY_READOUT: CC50 at 4 days (µM)

>>> reported_result("O=C1Nc2ccc(Cl)cc2C(C#CC2CC2)(C(F)(F)F)O1 (centres unmarked) [EFV, reference compound]")
44.1
>>> reported_result("CO[P@](=O)(c1cc(C)cc(/C=C/C#N)c1)c1c(C(N)=O)[nH]c2ccc(Cl)cc12")
18.6
